Molecular target: purified HLA DRB4*0101 (Homo sapiens, UniProt P01903+P13762, G164S)
Construct: purified from EBV transformed homozygous cell lines or single MHC allele transfected 721.221, C1R, or fibroblast lines; made in house
Assay: HLA-DR radioligand binding inhibition assay, DRB4*0101
Details: IC50 nM purified HLA DRB4 *0101, purified HLA DRB4*0101
Description: Instead, wells of an opaque white 96-well Optiplate (Packard) are coated with 3 μg (100 μl@ 30 μg/ml) of HLA-specific antibody (Ab) that “capture” complexes of radiolabeled MHC and unlabeled peptide transferred from the molecular binding assay plate in 100 μl of 0.05% NP40/PBS. […] Captured complexes are then measured on a microplate scintillation and luminescence counter (TopCount NXTTM; Packard). […]
Measured Attribute: IC50
Remember to quote the unit after the number.

Recorded IC50, per entry:
>>> result("CC(C)C[C@H](NC(=O)[C@H](Cc1c[nH]cn1)NC(=O)[C@@H](N)CS)C(=O)N[C@@H](Cc1ccccc1)C(=O)N[C@@H](Cc1ccc(O)cc1)C(=O)N[C@@H](CC(N)=O)C(=O)N[C@@H](CCC(=O)O)C(=O)N[C@@H](CCC(N)=O)C(=O)N[C@@H](CCC(N)=O)C(=O)N[C@@H](CCC(=O)O)C(=O)N[C@@H](C)C(=O)N[C@@H](CCCNC(=N)N)C(=O)NCC(=O)N[C@H](C(=O)N[C@@H](Cc1c[nH]cn1)C(=O)O)C(C)C [Peptide 9019.0023]")
"5310 nM"
>>> result("CC(C)C[C@H](NC(=O)[C@@H](NC(=O)[C@H](CCCNC(=N)N)NC(=O)[C@H](CS)NC(=O)[C@@H](N)CCC(=O)O)C(C)C)C(=O)N[C@@H](CCC(N)=O)C(=O)NCC(=O)N[C@@H](CC(C)C)C(=O)N1CCC[C@H]1C(=O)N[C@@H](CCCNC(=N)N)C(=O)N[C@@H](CCC(=O)O)C(=O)N[C@@H](Cc1ccc(O)cc1)C(=O)N[C@H](C(=O)N[C@@H](CC(N)=O)C(=O)N[C@@H](C)C(=O)O)C(C)C [Peptide 9019.0063]")
"2570 nM"

For the next question, use this compound.
Measured IC50, CC(C)C[C@H](NC(=O)CNC(=O)[C@H](CO)NC(=O)[C@@H](N)CC(N)=O)C(=O)N[C@@H](Cc1ccc(O)cc1)C(=O)N[C@H](C(=O)N[C@@H](CS)C(=O)N[C@@H](CCC(N)=O)C(=O)N[C@@H](C)C(=O)N[C@@H](CC(N)=O)C(=O)N[C@@H](CC(N)=O)C(=O)N[C@@H](CO)C(=O)N[C@@H](C)C(=O)N[C@@H](CO)C(=O)NCC(=O)O)[C@@H](C)O [Peptide 9019.0130] : 100 nM

* * *

biological target: purified HLA DRB1*1501 (Homo sapiens, UniProt P01903+P01911); construct: purified from EBV transformed homozygous cell lines or single MHC allele transfected 721.221, C1R, or fibroblast lines; made in house; assay: HLA-DR radioligand binding inhibition assay, DRB1*1501
Binary call on IC50 with cut-off 700 nM: strictly below means class 1, and equality or higher means class 0.

Bench note: check whether CC[C@H](C)[C@H](NC(=O)[C@H](CS)NC(=O)[C@H](CC(C)C)NC(=O)[C@@H](N)CCCCN)C(=O)N[C@@H](Cc1ccc(O)cc1)C(=O)N[C@H](C(=O)N[C@@H](CC(=O)O)C(=O)N[C@@H](CC(N)=O)C(=O)N[C@@H](CO)C(=O)N[C@H](C(=O)N[C@@H](CCCNC(=N)N)C(=O)N1CCC[C@H]1C(=O)N[C@@H](CCC(=O)O)C(=O)N[C@@H](CCC(=O)O)C(=O)N[C@@H](CC(C)C)C(=O)O)[C@@H](C)CC)[C@@H](C)O [Peptide 9019.0159] shows IC50 below 700 nM
class 1

These entries and their values trace back to patent US20140377340A1.
